Target: Thrombin (TH) (Bos taurus, UniProt P00735)
Sequence (P00735 44-625): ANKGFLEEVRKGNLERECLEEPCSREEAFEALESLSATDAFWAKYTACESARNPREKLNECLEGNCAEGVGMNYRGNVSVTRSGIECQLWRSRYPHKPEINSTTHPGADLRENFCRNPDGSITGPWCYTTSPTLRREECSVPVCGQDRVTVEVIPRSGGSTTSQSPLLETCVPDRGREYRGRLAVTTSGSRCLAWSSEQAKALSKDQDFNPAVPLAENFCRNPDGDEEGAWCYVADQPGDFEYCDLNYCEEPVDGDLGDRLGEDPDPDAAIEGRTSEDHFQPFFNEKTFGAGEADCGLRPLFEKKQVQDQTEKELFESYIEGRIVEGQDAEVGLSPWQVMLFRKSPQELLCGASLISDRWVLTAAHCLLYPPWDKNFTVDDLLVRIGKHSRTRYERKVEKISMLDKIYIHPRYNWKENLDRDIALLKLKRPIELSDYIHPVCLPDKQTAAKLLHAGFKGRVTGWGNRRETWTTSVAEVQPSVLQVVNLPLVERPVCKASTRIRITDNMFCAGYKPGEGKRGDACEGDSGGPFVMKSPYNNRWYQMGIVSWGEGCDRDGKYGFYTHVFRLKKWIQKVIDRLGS
Type: biochemical, Cow
Conditions: TABLE 4, CHA substrates; So = 0.54; pH 8.4; 37° C., 10 minutes; 1.0 NIH/ml
assay-readout: Selectivity TH, absorbance (O.D.) at 645 nm
Give the quantity in O.D., number only.

Data request, read-out Selectivity TH, absorbance (O.D.) at 645 nm, for Cc1cc(C)c(S(=O)(=O)NCCCC[C@@H](N)C(=O)N[C@@H](Cc2ccccc2)C(=O)N[C@@H](CCCCN)C(=O)Nc2ccc(O)c(C(=O)O)c2)c(C)c1 [NPC-10, HD-Lys(Mst)PheLysCHA.2HCl]
0

Let us now turn to NCCCC[C@H](NC(=O)[C@H](Cc1ccccc1)NC(=O)[C@H](N)CCCCNC(=O)c1ccc2ccccc2c1)C(=O)Nc1ccc(O)c(C(=O)O)c1 [NPC-9, HD-Lys(NaC)PheLysCHA.2HCl]
0

And then "Cc1ccc(S(=O)(=O)NCCCC[C@@H](N)C(=O)N[C@@H](CC(C)C)C(=O)N[C@@H](CCCCN)C(=O)Nc2ccc(O)c(C(=O)O)c2)cc1" , what is it?
0.001

And "NCCCC[C@H](NC(=O)[C@H](Cc1ccccc1)NC(=O)[C@H](N)CCC(=O)NCCc1ccccc1)C(=O)Nc1ccc(O)c(C(=O)O)c1" ?
0

Further cases:
Given "NCCCC[C@H](NC(=O)[C@H](Cc1ccccc1)NC(=O)[C@H](N)CCCCNC(=O)OCc1ccccc1)C(=O)Nc1ccc(O)c(C(=O)O)c1" , state its recorded Selectivity TH, absorbance (O.D.) at 645 nm.
0

Reference for the values: patent US4605614A
